assay: yeast TOR pathway RPL19A-GFP modulators, primary screen, cell-based, S. cerevisiae, multiplex flow cytometry (AID 1862);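 further: lower values mimic rapamycin by blocking the RPL19A rise seen in DMSO cells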; details: S. cerevisiae RPL19A-GFP strain, flow cytometry fluorescence, 3 h; at 10 µM; hits give low values
Records with an inconclusive call do not appear.
I'd appreciate it if you could supply percent of DMSO control GFP values for the items below.
Hi! Could you send only the number? It should be in %, unit omitted.

Given the entry COc1ccccc1-c1ccc(/C=C2/C=C(CC(C)C)OC2=O)o1 , report its measured percent of DMSO control GFP.
99.5

How about this compound: Cn1c2c(c(=O)[nH]c1=O)C(c1ccc(O)cc1)C1=C(N2)c2ccccc2C1=O (stereo not given)
99

How about this compound: CCN(CC)CCNc1ccc(CO)c2sc3ccccc3c(=O)c12
104

How about this compound: COC(=O)c1cc(=O)c2ccc(OC)cc2o1
99.1

How about this compound: C[C@]12C=CC(=O)C=C1CCC1C3CC[C@](O)(C(=O)CO)[C@@]3(C)CC3OC312 (stereo not given in full)
102

How about this compound: COc1ccc(NC(=O)C2CSC3c4ccccc4C(=O)N23)cc1 (stereo not given)
101

How about this compound: CN(C)c1nc(N(C)C)nc(N(C)C)n1
94.6

How about this compound: CC1(C)Cc2ccccc2C(C(Cc2ccccc2)C(N)=O)=N1 (stereo not given)
100

How about this compound: Cc1ccc2c(c1)OC(=O)CC2c1ccccc1 (stereo not given)
100

How about this compound: Cc1ccccc1NC(=O)C1c2ccccc2Oc2ccccc21
96.1

How about this compound: Nc1nc2c(ncn2COC(CO)CO)c(=O)[nH]1
97.3

How about this compound: CCN(CC)CCOC(=O)C1(C2CCCCC2)CCCCC1
110

How about this compound: CC(=O)NC1C(OCCOc2ccc(Cl)cc2Cl)OC(COC(C)=O)C(OC(C)=O)C1OC(C)=O (stereo not given)
103

How about this compound: Cn1c(=O)[nH]c(=O)c2c1ncn2CCN1CCOCC1
103

How about this compound: CCCCC1C(=O)N(c2ccccc2)N(c2ccccc2)C1=O
98.1

How about this compound: c1cc2c(cc1C1CCCCC1)c1c3n2CCN=C3CCC1
98.1

How about this compound: CC1(C)CC(=O)C(C(=O)CCCCC(=O)C2C(=O)CC(C)(C)CC2=O)C(=O)C1
105

How about this compound: NC(=O)OCC(COC(N)=O)c1ccccc1
104

How about this compound: CCCNC(=O)NS(=O)(=O)c1ccc(Cl)cc1
98.2

How about this compound: CCOC(=O)c1ccc(N2C(=O)C(CC(N)=O)N(CCc3ccc(OC)c(OC)c3)C2=S)cc1 (stereo not given)
96.9

How about this compound: COc1cccc(C2CCCN2Cc2nc(CCC(C)C)no2)c1 (stereo not given)
101

How about this compound: CCOc1cc(C)cc2oc(=O)cc(-c3ccccc3)c12
99.5

How about this compound: COc1ccc(C2(CCN=Cc3ccc(N(C)C)cc3)CCOC(C)(C)C2)cc1 (stereo not given)
104

How about this compound: COc1ccc(CC(=O)c2c(O)cc(O)cc2O)cc1OC
103

How about this compound: O=P(O)(O)CP(=O)(O)O
91.9

How about this compound: Cc1ccccc1-c1coc2cc(O)ccc2c1=O
98.5

How about this compound: CC(C)OC(=O)CC1C(=O)NCCN1C(=S)NC(=O)c1cccs1 (stereo not given)
98.1

How about this compound: CC(=O)NCCCCCCNC(C)=O
106

How about this compound: Cc1cc(OC(C(=O)O)c2ccccc2)c2c(C)c(Cc3ccccc3)c(=O)oc2c1 (stereo not given)
103

How about this compound: CCOC(=O)Nc1ccc2c(c1)N(C(=O)CCN1CCOCC1)c1ccccc1S2
107

How about this compound: O=C(O)c1cccnc1
103

How about this compound: COc1ccc(C(=O)/C=C/c2ccc(OC(=O)c3cc(OC)c(OC)c(OC)c3)cc2)cc1
100

How about this compound: CCc1cc2c(=O)c(-c3ccc(F)cc3)c(C)oc2cc1OCC(=O)O
107

How about this compound: CCCCC[C@H](O)/C=C/[C@@H]1[C@@H](C/C=C\CCCC(=O)OC)[C@@H](O)C[C@H]1O
97.4

How about this compound: CN(CCc1cnn(C)c1)Cc1nc(CC2CC2)no1
101

How about this compound: CCN(CC)C1=C(Cl)C(=O)C(Cl)C12OCCO2 (stereo not given)
100

How about this compound: CC[C@]1(O)C[C@@H]2CN(CCc3c([nH]c4ccccc34)[C@@](C(=O)OC)(c3cc4c(cc3OC)N(C)[C@H]3[C@@](O)(C(=O)OC)[C@H](OC(C)=O)[C@]5(CC)C=CCN6CC[C@]43[C@@H]65)C2)C1
102

How about this compound: COc1cc(C2CC(=O)NC3=C2C(=O)CC(C)(C)C3)ccc1O (stereo not given)
99.6

How about this compound: Cc1cccc(N(C)C(=S)Oc2ccc3ccccc3c2)c1
94.4

How about this compound: CC(=O)OC[C@H]1O[C@@H](n2ncc(=O)[nH]c2=O)[C@H](OC(C)=O)[C@@H]1OC(C)=O
94.8

How about this compound: COc1cc(=O)n(C)c2ccccc12
93.5

How about this compound: CC(C(=O)O)c1ccc(N2Cc3ccccc3C2=O)cc1 (stereo not given)
98.4

How about this compound: COC(=O)c1cc(-c2ccc(C)o2)nc2ccccc12
101

How about this compound: CCN(CC)C(=O)c1ccc(O)c(OC)c1
94.2

How about this compound: Cc1cccc(C)c1NS(=O)(=O)c1ccc(NC(=O)c2ccc(Cl)c([N+](=O)[O-])c2)cc1
97.7

Just for reference, PubChem BioAssay is where these values come from.
